Data origin, for the record: paper PMC3728731

Target chain: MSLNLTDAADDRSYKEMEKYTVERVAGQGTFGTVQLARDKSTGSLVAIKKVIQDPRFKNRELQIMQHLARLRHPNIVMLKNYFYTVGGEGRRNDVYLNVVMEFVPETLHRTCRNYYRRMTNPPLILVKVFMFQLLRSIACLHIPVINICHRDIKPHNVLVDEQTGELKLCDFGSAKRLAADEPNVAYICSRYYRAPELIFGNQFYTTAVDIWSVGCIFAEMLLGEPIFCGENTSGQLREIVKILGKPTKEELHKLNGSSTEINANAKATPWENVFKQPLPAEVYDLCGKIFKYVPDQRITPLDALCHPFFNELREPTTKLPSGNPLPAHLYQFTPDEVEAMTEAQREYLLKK
recorded metric: IC50 (nM)
State the answer as a number, implicitly in nM.

Below, each entry is followed by its recorded IC50 result.
COc1cccc(OC)c1C(=O)c1sc(Nc2ccccc2)nc1N; 400
Cc1cccc(C)c1Nc1nc(N)c(C(=O)c2ccccc2)s1; 200
Nc1nc(Nc2ccccc2)sc1C(=O)c1cccc(Br)c1; 100

The value of IC50 measured for the compound Nc1nc(NCC2CCCCC2)sc1C(=O)c1ccccc1 turned out to be 700

Record Nc1nc(Nc2ccccc2)sc1C(=O)c1c(F)cccc1F . Reported IC50: 20

IC50 reading for Nc1nc(NCCc2ccccc2)sc1C(=O)c1ccccc1 : 500

Reported IC50 of CC(C)(C)C(=O)c1sc(NC2CCCCC2)nc1N : 12000

Reported IC50 of Cc1ccc(Nc2nc(N)c(C(=O)c3ccccc3)s2)cc1C : 60
